System: 217524-143-R1-J4-PDC spheroids with HUVEC/MSC, viability
Experiment: Anticancer human tumor 217524-143-R1-J4-PDC patient-derived pancreatic carcinoma cell line growth inhibition [CLK]
Details: second compound 0.316 µM; first compound 0.316 µM; stronger effect = lower value
Measured Metric: viability, T/C

Compound: CCN1CCN(Cc2ccc(Nc3ncc(F)c(-c4cc(F)c5nc(C)n(C(C)C)c5c4)n3)nc2)CC1 + CNC(=O)c1ccc(Nc2nc(OC3CCCC3)c3c(-c4ccc5nc(C)oc5c4)c[nH]c3n2)c(OC)c1
Measured Metric: viability, T/C
Result: 30.5%
//
Compound: CC(Nc1ccc2c(c1)OCCn1cc(N3C(=O)OCC3C(F)F)nc1-2)C(N)=O (configuration not stated) + CNC(=O)c1ccc(Nc2nc(OC3CCCC3)c3c(-c4ccc5nc(C)oc5c4)c[nH]c3n2)c(OC)c1
Measured Metric: viability, T/C
Result: 7.07%
//
Compound: CC(CO)NC(=O)c1cc(-c2ccc(Cl)cc2)nn(-c2cnn(C)c2)c1=O (configuration not stated) + CN1CCN(c2cc(C(=O)Nc3cc4cc(-c5cnn(C)c5)ccc4cn3)ccn2)CC1
Measured Metric: viability, T/C
Result: 18.1%
//
Compound: Nc1ccn(C2OC(CO)C(O)C2(F)F)c(=O)n1 (configuration not stated) + CN1CCN(c2cc(C(=O)Nc3cc4cc(-c5cnn(C)c5)ccc4cn3)ccn2)CC1
Measured Metric: viability, T/C
Result: 11.6%
//
Compound: COc1cccc2c1C(=O)c1c(O)c3c(c(O)c1C2=O)CC(O)(C(=O)CO)CC3OC1CC(N)C(O)C(C)O1 (configuration not stated) + CNC(=O)c1ccc(Nc2nc(OC3CCCC3)c3c(-c4ccc5nc(C)oc5c4)c[nH]c3n2)c(OC)c1
Measured Metric: viability, T/C
Result: 16.5%
//
Compound: CC(CO)NC(=O)c1cc(-c2ccc(Cl)cc2)nn(-c2cnn(C)c2)c1=O (configuration not stated) + CNC(=O)c1ccc(Nc2nc(OC3CCCC3)c3c(-c4ccc5nc(C)oc5c4)c[nH]c3n2)c(OC)c1
Measured Metric: viability, T/C
Result: 44.8%
//
Compound: CC(=O)O[C@H]1C(=O)[C@@]2(C)[C@H]([C@H](OC(=O)c3ccccc3)[C@]3(O)C[C@H](OC(=O)[C@H](O)[C@@H](NC(=O)c4ccccc4)c4ccccc4)C(C)=C1C3(C)C)[C@]1(OC(C)=O)CO[C@@H]1C[C@@H]2O + CN1CCN(c2cc(C(=O)Nc3cc4cc(-c5cnn(C)c5)ccc4cn3)ccn2)CC1
Measured Metric: viability, T/C
Result: 10.7%

* * *

Test system: 217524-143-R1-J4-PDC spheroids with HUVEC/MSC, viability
Assay: Anticancer human tumor 217524-143-R1-J4-PDC cell line growth inhibition [CLK];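 further: spheroids exposed to agents for seven days before reading; 100% = DMSO vehicle control viability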
Conditions: second compound 0.1 µM; first compound 1 µM; stronger effect = lower value
Reported viability, T/C values for the following molecules.

Molecule: CC(=O)O[C@H]1C(=O)[C@@]2(C)[C@H]([C@H](OC(=O)c3ccccc3)[C@]3(O)C[C@H](OC(=O)[C@H](O)[C@@H](NC(=O)c4ccccc4)c4ccccc4)C(C)=C1C3(C)C)[C@]1(OC(C)=O)CO[C@@H]1C[C@@H]2O + CNC(=O)c1ccc(Nc2nc(OC3CCCC3)c3c(-c4ccc5nc(C)oc5c4)c[nH]c3n2)c(OC)c1
viability, T/C: 28%
//
Molecule: C#Cc1c(F)ccc2cc(O)cc(-c3ncc4c(N5CC6CCC(C5)N6)nc(OCC56CCCN5CC(F)C6)nc4c3F)c12 (centres undefined) + CNC(=O)c1ccc(Nc2nc(OC3CCCC3)c3c(-c4ccc5nc(C)oc5c4)c[nH]c3n2)c(OC)c1
viability, T/C: 42.4%
//
Molecule: COc1c(OCCCN2CCOCC2)ccc2c3n(c(=NC(=O)c4cnc(N)nc4)nc12)CCN3 + CNC(=O)c1ccc(Nc2nc(OC3CCCC3)c3c(-c4ccc5nc(C)oc5c4)c[nH]c3n2)c(OC)c1
viability, T/C: 2.09%
//
Molecule: Nc1ccn(C2OC(CO)C(O)C2(F)F)c(=O)n1 (centres undefined) + CNC(=O)c1ccc(Nc2nc(OC3CCCC3)c3c(-c4ccc5nc(C)oc5c4)c[nH]c3n2)c(OC)c1
viability, T/C: 33.2%

* * *

Test system: 217524-143-R1-J4-PDC spheroids with HUVEC/MSC, viability
Experiment: Anticancer human tumor 217524-143-R1-J4-PDC cell line growth inhibition [CLK];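 further: spheroids exposed to agents for seven days before reading; 100% = DMSO vehicle control viability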
Conditions: second compound 0.0316 µM; first compound 0.316 µM; stronger effect = lower value
Reported viability, T/C values for the following molecules.
Measured Metric: viability, T/C (%)

Molecule: C=CC(=O)N1CCN(c2nc(=O)n(-c3c(C)ccnc3C(C)C)c3nc(-c4c(O)cccc4F)c(F)cc23)C(C)C1 (centres undefined) + CNC(=O)c1ccc(Nc2nc(OC3CCCC3)c3c(-c4ccc5nc(C)oc5c4)c[nH]c3n2)c(OC)c1
Measured Metric: viability, T/C
Value Units: %
Result: 82.2
--
Molecule: COc1ccc([C@@H](O)c2cc(-c3ncnc4cc(N5CCOCC5)ccc34)c(F)cc2Cl)nn1 + CN1CCN(c2cc(C(=O)Nc3cc4cc(-c5cnn(C)c5)ccc4cn3)ccn2)CC1
Measured Metric: viability, T/C
Value Units: %
Result: 46.9
--
Molecule: CC(=O)O[C@H]1C(=O)[C@@]2(C)[C@H]([C@H](OC(=O)c3ccccc3)[C@]3(O)C[C@H](OC(=O)[C@H](O)[C@@H](NC(=O)c4ccccc4)c4ccccc4)C(C)=C1C3(C)C)[C@]1(OC(C)=O)CO[C@@H]1C[C@@H]2O + CN1CCN(c2cc(C(=O)Nc3cc4cc(-c5cnn(C)c5)ccc4cn3)ccn2)CC1
Measured Metric: viability, T/C
Value Units: %
Result: 10.8
--
Molecule: CC(Nc1ccc2c(c1)OCCn1cc(N3C(=O)OCC3C(F)F)nc1-2)C(N)=O (centres undefined) + CN1CCN(c2cc(C(=O)Nc3cc4cc(-c5cnn(C)c5)ccc4cn3)ccn2)CC1
Measured Metric: viability, T/C
Value Units: %
Result: 16.9
--
Molecule: C#Cc1c(F)ccc2cc(O)cc(-c3ncc4c(N5CC6CCC(C5)N6)nc(OCC56CCCN5CC(F)C6)nc4c3F)c12 (centres undefined) + CNC(=O)c1ccc(Nc2nc(OC3CCCC3)c3c(-c4ccc5nc(C)oc5c4)c[nH]c3n2)c(OC)c1
Measured Metric: viability, T/C
Value Units: %
Result: 90.8
--
Molecule: CC(CO)NC(=O)c1cc(-c2ccc(Cl)cc2)nn(-c2cnn(C)c2)c1=O (centres undefined) + CN1CCN(c2cc(C(=O)Nc3cc4cc(-c5cnn(C)c5)ccc4cn3)ccn2)CC1
Measured Metric: viability, T/C
Value Units: %
Result: 68.8
--
Molecule: CC(Nc1ccc2c(c1)OCCn1cc(N3C(=O)OCC3C(F)F)nc1-2)C(N)=O (centres undefined) + CNC(=O)c1ccc(Nc2nc(OC3CCCC3)c3c(-c4ccc5nc(C)oc5c4)c[nH]c3n2)c(OC)c1
Measured Metric: viability, T/C
Value Units: %
Result: 15.6
--
Molecule: CC(=O)O[C@H]1C(=O)[C@@]2(C)[C@H]([C@H](OC(=O)c3ccccc3)[C@]3(O)C[C@H](OC(=O)[C@H](O)[C@@H](NC(=O)c4ccccc4)c4ccccc4)C(C)=C1C3(C)C)[C@]1(OC(C)=O)CO[C@@H]1C[C@@H]2O + CNC(=O)c1ccc(Nc2nc(OC3CCCC3)c3c(-c4ccc5nc(C)oc5c4)c[nH]c3n2)c(OC)c1
Measured Metric: viability, T/C
Value Units: %
Result: 16.9
--
Molecule: COc1cccc2c1C(=O)c1c(O)c3c(c(O)c1C2=O)CC(O)(C(=O)CO)CC3OC1CC(N)C(O)C(C)O1 (centres undefined) + CNC(=O)c1ccc(Nc2nc(OC3CCCC3)c3c(-c4ccc5nc(C)oc5c4)c[nH]c3n2)c(OC)c1
Measured Metric: viability, T/C
Value Units: %
Result: 25.3

* * *

System: 217524-143-R1-J4-PDC spheroids with HUVEC/MSC, viability
Experiment: Anticancer human tumor 217524-143-R1-J4-PDC cell line growth inhibition [CLK];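 further: spheroids exposed to agents for seven days before reading; 100% = DMSO vehicle control viability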
Settings: second compound 0.0316 µM; first compound 0.316 µM; stronger effect = lower value

Compound: Nc1ccn(C2OC(CO)C(O)C2(F)F)c(=O)n1 (stereo not given) + CNC(=O)c1ccc(Nc2nc(OC3CCCC3)c3c(-c4ccc5nc(C)oc5c4)c[nH]c3n2)c(OC)c1
Value Units: %
viability, T/C: 25.2

Compound: O=C(c1cc(Cc2n[nH]c(=O)c3ccccc23)ccc1F)N1CCN(C(=O)C2CC2)CC1 + CN1CCN(c2cc(C(=O)Nc3cc4cc(-c5cnn(C)c5)ccc4cn3)ccn2)CC1
Value Units: %
viability, T/C: 71.2

Compound: COc1cccc2c1C(=O)c1c(O)c3c(c(O)c1C2=O)CC(O)(C(=O)CO)CC3OC1CC(N)C(O)C(C)O1 (stereo not given) + CN1CCN(c2cc(C(=O)Nc3cc4cc(-c5cnn(C)c5)ccc4cn3)ccn2)CC1
Value Units: %
viability, T/C: 18.3

Compound: CC1(C)CCC(CN2CCN(c3ccc(C(=O)NS(=O)(=O)c4ccc(NCC5CCOCC5)c([N+](=O)[O-])c4)c(Oc4cnc5[nH]ccc5c4)c3)CC2)=C(c2ccc(Cl)cc2)C1 + CNC(=O)c1ccc(Nc2nc(OC3CCCC3)c3c(-c4ccc5nc(C)oc5c4)c[nH]c3n2)c(OC)c1
Value Units: %
viability, T/C: 81.2

Compound: COc1ccc([C@@H](O)c2cc(-c3ncnc4cc(N5CCOCC5)ccc34)c(F)cc2Cl)nn1 + CNC(=O)c1ccc(Nc2nc(OC3CCCC3)c3c(-c4ccc5nc(C)oc5c4)c[nH]c3n2)c(OC)c1
Value Units: %
viability, T/C: 66
